molecular target: GABA-A receptor; anion channel; assay: Inhibition of [35S][…] (TBPS) binding to Gamma-aminobutyric acid receptor; assay type: protein-complex assay
Reported metric: IC50 (nM)

>>> result("C#CCCOC(=O)c1c(C)nc2sc3c(c2c1N)CCC1(C3)OCCO1")
320
>>> result("COC(=O)c1c(C)nc2c(c1N)c1ccccc1n2C")
2000
>>> result("CCCOC(=O)c1c(C)nc2c(c1N)c1ccccc1n2C")
2000
>>> result("Cc1nc2sc3c(c2c(N)c1C(=O)OCc1ccccc1)CCC1(C3)OCCO1")
1400
>>> result("Cc1nc2sc3c(c2c2ncn(CCC4CC4)c12)CCC1(C3)OCCO1")
6300
>>> result("Cc1nc2sc3c(c2c2ncn(CCc4ccc(Cl)cc4)c12)CCC1(C3)OCCO1")
2700
>>> result("Cc1nc2sc3c(c2c(N)c1C(=O)OCC1CC1)CCC1(C3)OCCO1")
870
>>> result("Cc1nc2sc3c(c2c2ncn(CC4CC4)c12)CCC1(C3)OCCO1")
8900
>>> result("Cc1nc2sc3c(c2c(N)c1C(=O)OCc1ccc(Cl)cc1)CCC1(C3)OCCO1")
310
